Read-out: Interferon-gamma inducible Protein 10 (IP10), CXCL10 (gene 3627)
Test: BSK_hDFCGF_IP10: BioMAP Diversity Plus: hDFCGF Assay for Interferon-gamma inducible Protein 10 (IP10) Biomarker Activity (AID 2283053)
Details: primary human foreskin fibroblasts; actives raise or lower the signal
The source made the active and inactive calls. The calls were made as follows: active = hit-call score of the fitted dose curve at least 0.9, where 1 is the maximum; inactive = score below 0.9.
Hi there, use one of these labels in your reply, thanks! Y = active, N = inactive

Here are 6 compounds together with their reported answers.
CHEMICAL SMILES	CLASSIFICATION
NCC(F)(F)C(F)(F)C(F)(F)C(F)(F)C(F)(F)C(F)(F)C(F)(F)C(F)(F)F	N
NC(=O)C(F)(F)C(F)(F)C(F)(F)C(F)F	N
FC(F)(F)C(F)(F)C(F)(F)C(F)(F)C(F)(F)C(F)(F)CC[Si](Cl)(Cl)Cl	N
NC(=O)C(F)(F)C(F)(F)C(F)(F)F	N
CCN(CC)c1ccc2c(c1)Oc1cc(N(CC)CC)ccc1C21OC(=O)c2ccccc21	N
O=C1C=CC(=O)N1c1ccc(Cc2ccc(N3C(=O)C=CC3=O)cc2)cc1	Y

Task: How did this test come out for C[C@]12CC[C@H]3C(=CCc4cc(O)ccc43)[C@@H]1CCC2=O ?
Result: N

Task: How did this test come out for O=C(O)CCC(F)(F)C(F)(F)C(F)(F)F ?
Result: N

----------
Test system: TTR (gene 7276)
Assay: CCTE_GLTED_hTTR_0.125uM: CCTE's human Transthyretin (hTTR) Inhibition Assay, with 0.125uM TTR, Great Lakes Toxicology and Ecology Division (GLTED) Lab (AID 2284431);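 also: hits lower the fluorescence signal relative to DMSO baseline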
Method: CCTE_GLTED_hTTR is a cell-free, single-readout assay designed to test the chemicals' ability to displace T4 from the human transthyretin (TTR) protein. TTR (at 0.125uM or 0.5uM) is incubated in presence of test chemical for 2 hours during which disrupting chemicals displace ANSA from the TTR protein. Results read fluorescence at 380 excitation and 475 emission.CCTE_GLTED_hTTR_0.125uM is the assay component measured from the CCTE_GLTED_hTTR assay. […]
Calls of active or inactive are those of the source. How the source made its calls: active means hit-call score of the fitted dose curve at least 0.9, where 1 is the maximum; inactive means score below 0.9.
Below, each of the compounds is paired with its reported AC50 value.

# example entries with known answers
COMPOUND	AC50
O=C(c1ccccc1)c1ccc(O)cc1O	0.0464 µM (active)
CCN=c1cc2oc3cc(NCC)c(C)cc3c(-c3ccccc3C(=O)OCC)c-2cc1C	32.2 µM (active)
CCC(Cc1c(I)cc(I)c(N)c1I)C(=O)O (stereo not given)	2.1 µM (active)
CCCCCCCC/C=C\CCCCCCCC(=O)N(C)CC(=O)O	3.75 µM (active)

Let's switch to this compound now.
Form field AC50, entry CCN=C1C=CC(=C(c2ccc(N(CC)CC)cc2)c2ccc(N(CC)CC)cc2)c2ccccc21 : 1.85 µM (active)

----------
Assay: ATG_AP_2_CIS: Attagene CIS-FACTORIAL HepG2 Assay for human Activator Protein 2 (AP-2) (AID 2282932)
Conditions: HepG2 AP-2 cis-reporter, Attagene transcription factor profiling; actives raise or lower the signal
The source made the active and inactive calls. Rule for the calls: active = hit-call score of the fitted dose curve at least 0.9, where 1 is the maximum; inactive = score below 0.9.
Hi there, use one of these labels in your reply, thanks! Y (active), N (inactive)

Task: How did this test come out for O=C(O)C(F)(F)C(F)(F)C(F)(F)C(=O)O ?
Result: N

Task: How did this test come out for C=C(C)CCCC ?
Result: N

Task: How did this test come out for C=CC(=O)OCC(F)(F)C(F)(F)C(F)(F)COC(=O)C=C ?
Result: N

Task: How did this test come out for CN(C(=O)C(F)(F)C(F)(F)C(F)(F)F)[Si](C)(C)C ?
Result: N

Task: How did this test come out for CSc1ccc(Cl)cc1 ?
Result: N

Task: How did this test come out for CCCCCCCCCCCCC[N+](C)(C)Cc1ccccc1 ?
Result: N

Task: How did this test come out for CCN=C1C=CC(=C(c2ccc(N(CC)CC)cc2)c2ccc(N(CC)CC)cc2)c2ccccc21 ?
Result: Y

Task: How did this test come out for CCCC(=O)OCC(COC(=O)CCC)OC(=O)CCC ?
Result: N

Task: How did this test come out for CCOC(=O)CCC(C)=O ?
Result: N

Task: How did this test come out for O=C1C=CC(=O)N1c1ccc(Cc2ccc(N3C(=O)C=CC3=O)cc2)cc1 ?
Result: N

Task: How did this test come out for CC(=O)c1ccccc1N ?
Result: N

Task: How did this test come out for O=C1c2c(O)ccc(Nc3ccc(CCO)cc3)c2C(=O)c2c([N+](=O)[O-])ccc(O)c21 ?
Result: N

----------
Test: ATG_NRF2_ARE_CIS: Attagene CIS-FACTORIAL HepG2 Assay for human Nuclear Factor Erythroid 2 Related Factor 2 (NFR2) response to Antioxidant Response Elements (ARE) (AID 2282992)
Details: HepG2 Attagene ARE/NRF2 reporter, transcription factor activity; actives raise or lower the signal
Calls of active or inactive are those of the source. Rule for the calls: active = hit-call score of the fitted dose curve at least 0.9, where 1 is the maximum; inactive = score below 0.9.
Hi there, use one of these labels in your reply, thanks! YES for active, NO for inactive

MOLECULE	CLASSIFICATION
CN(C(=O)C(F)(F)C(F)(F)C(F)(F)F)[Si](C)(C)C	NO
C=C(C)C(=O)OCC(F)(F)C(F)(F)C(F)(F)C(F)F	NO
OCCCc1cccnc1	NO
NCC(F)(F)C(F)(F)C(F)(F)C(F)(F)C(F)(F)C(F)(F)C(F)(F)C(F)(F)F	NO
O=C(Cl)C(F)(F)C(F)(F)C(F)(F)C(F)(F)C(F)(F)C(F)(F)F	YES
O=C(O)CCC(F)(F)C(F)(F)C(F)(F)C(F)(F)C(F)(F)C(F)(F)C(F)(F)F	YES
CNS(=O)(=O)C(F)(F)C(F)(F)C(F)(F)C(F)(F)C(F)(F)C(F)(F)C(F)(F)C(F)(F)F	NO
COC(F)(C(F)F)C(F)(F)F (stereo unspecified)	NO
Cc1ccc(O)c(-n2nc3ccccc3n2)c1	YES
OCC(F)(F)C(F)(F)C(F)(F)C(F)(F)C(F)(F)C(F)(F)C(F)(F)C(F)(F)CO	NO

Task: How did this test come out for O=C(O)CCC(F)(F)C(F)(F)C(F)(F)F ?
Result: NO

Task: How did this test come out for N#Cc1ccccc1O ?
Result: NO

Task: How did this test come out for CCOCN(C(=O)CS(=O)(=O)O)c1c(C)cccc1CC ?
Result: NO

Task: How did this test come out for OCCCCC(F)(F)C(F)(F)C(F)(F)C(F)(F)F ?
Result: NO

----------
Biological target: Estrogen receptor (Homo sapiens)
Assay: ATG_ERa_TRANS: Attagene TRANS-FACTORIAL HepG2 Assay for human Estrogen Receptor alpha (ERa) (AID 2282970)
Details: HepG2 Attagene TRANS ERa GAL4 reporter, mRNA
Inconclusive results are not listed. Active and inactive are the calls of the source. The calls were made as follows: active = hit-call score of the fitted dose curve at least 0.9, where 1 is the maximum; inconclusive = response in the unintended direction; inactive = score below 0.9.
VALUE KIND: AC50

MOLECULE	VALUE KIND	DATA VALUE
C=CC(=O)OCC(F)(F)C(F)(F)C(F)(F)COC(=O)C=C	AC50	inactive
NCC(F)(F)C(F)(F)C(F)(F)C(F)(F)C(F)(F)C(F)(F)F	AC50	inactive
CCCCCCCCCCCC(=O)Cl	AC50	inactive
OCCCC(F)(F)C(F)(F)C(F)(F)C(F)(F)C(F)(F)C(F)(F)C(F)(F)C(F)(F)F	AC50	10.9 µM (active)
CC(=O)CCC(C)C	AC50	inactive
CCCCCCCCn1sc(Cl)c(Cl)c1=O	AC50	inactive
OCCCCC(F)(F)C(F)(F)C(F)(F)C(F)(F)F	AC50	inactive
NS(=O)(=O)C(F)(F)C(F)(F)C(F)(F)C(F)(F)C(F)(F)C(F)(F)F	AC50	13.9 µM (active)

Form field AC50, entry O=S(=O)(O)c1ccc(Cl)cc1 : inactive

Form field AC50, entry COCCC(=O)OC : inactive

Form field AC50, entry OCC(O)CC(F)(F)C(F)(F)C(F)(F)C(F)(F)F (stereo not drawn) : 70.8 µM (active)

Form field AC50, entry CNS(=O)(=O)C(F)(F)C(F)(F)C(F)(F)C(F)(F)C(F)(F)C(F)(F)C(F)(F)C(F)(F)F : 9.26 µM (active)

Form field AC50, entry CC(C)CCCC(C)CCO (stereo not drawn) : inactive

----------
Test: ATG_PXRE_CIS: Attagene CIS-FACTORIAL HepG2 Assay for human Pregnane X Receptor Element (PXRE) (AID 2282957)
Conditions: HepG2 Attagene CIS-FACTORIAL PXRE reporter, mRNA; actives raise or lower the signal
The source made the active and inactive calls. Rule for the calls: active = hit-call score of the fitted dose curve at least 0.9, where 1 is the maximum; inactive = score below 0.9.
Hi there, use one of these labels in your reply, thanks! active, inactive

Here are 8 compounds together with their reported answers.
COMPOUND	CLASSIFICATION
Nc1cc([N+](=O)[O-])cc(Cl)c1O	active
OCC(F)(F)C(F)(F)C(F)(F)C(F)(F)C(F)(F)C(F)(F)CO	active
CCN(CC)c1ccc(N=Nc2ccccc2)cc1	active
Cc1ccc(S(=O)(=O)C(I)I)cc1	active
O=C(O)CCC(F)(F)C(F)(F)C(F)(F)C(F)(F)C(F)(F)C(F)(F)C(F)(F)F	inactive
CCN(CC)c1ccc(C=O)cc1	active
O=S(=O)(Cl)C(F)(F)C(F)(F)C(F)(F)C(F)(F)C(F)(F)C(F)(F)C(F)(F)C(F)(F)F	active
OCC(O)CC(F)(F)C(F)(F)C(F)(F)C(F)(F)F (configuration not stated)	inactive

Task: How did this test come out for CN(C(=O)C(F)(F)C(F)(F)C(F)(F)F)[Si](C)(C)C ?
Result: inactive

Task: How did this test come out for Nc1cccnc1N ?
Result: inactive

Task: How did this test come out for FC(F)(F)C(F)(F)C(F)(F)C(F)(F)C(F)(F)C(F)(F)C(F)(F)CCI ?
Result: inactive

Task: How did this test come out for NCC(F)(F)C(F)(F)C(F)(F)C(F)(F)C(F)(F)C(F)(F)F ?
Result: inactive

Task: How did this test come out for OCCCCC(F)(F)C(F)(F)C(F)(F)C(F)(F)F ?
Result: inactive
